Reported IC50 values for a set of compounds
- MEASURED_TARGET: TDP1 (Homo sapiens, UniProt Q9NUW8)
- Sequence (Q9NUW8 whole entry): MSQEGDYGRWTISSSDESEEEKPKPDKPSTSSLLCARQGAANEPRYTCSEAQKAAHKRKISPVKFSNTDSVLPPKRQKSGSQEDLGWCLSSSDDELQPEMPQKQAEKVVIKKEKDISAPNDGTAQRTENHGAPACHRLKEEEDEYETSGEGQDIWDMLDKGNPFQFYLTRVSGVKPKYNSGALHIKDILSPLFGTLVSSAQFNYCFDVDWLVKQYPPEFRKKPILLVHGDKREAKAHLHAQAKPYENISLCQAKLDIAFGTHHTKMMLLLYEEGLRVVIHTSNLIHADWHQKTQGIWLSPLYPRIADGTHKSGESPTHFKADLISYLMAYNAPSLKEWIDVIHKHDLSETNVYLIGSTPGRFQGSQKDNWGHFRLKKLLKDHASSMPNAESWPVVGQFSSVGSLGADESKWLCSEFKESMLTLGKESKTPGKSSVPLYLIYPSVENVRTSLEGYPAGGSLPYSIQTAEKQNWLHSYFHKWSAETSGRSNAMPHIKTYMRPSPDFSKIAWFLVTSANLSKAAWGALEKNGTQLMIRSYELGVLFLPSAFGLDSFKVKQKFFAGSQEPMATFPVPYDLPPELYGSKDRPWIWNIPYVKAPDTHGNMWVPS
Use µM as the unit, but write only the number.

Here are 2 compounds together with their reported answers.
1) CC1=C[C@@H]2[C@@H](c3cccs3)OC(C)(C)[C@@H]2CC1 [11d]
4.85
2) CC1=CC[C@@H]2C[C@H]1[C@H](c1ccc(Br)s1)OC2(C)C [12h]
1.75

IN: Please look at CC1=CC[C@@H]2C[C@H]1[C@H](c1ccc([N+](=O)[O-])o1)OC2(C)C [12j] and tell me its recorded IC50 on TDP1 (Homo sapiens, UniProt Q9NUW8).
OUT: 28

* * *

- Tested on: IMR-32 (human neuroblastoma cell line)
- EXPERIMENT_SUMMARY: Colorimetric cytotoxicity test, IMR-32
- Assay type: cell-based
- CONDITION_NOTES: Homo sapiens, IMR-32; read-out: Tpc IC50 (concentration close to IC50)
- From the text: The cytotoxicity of the compounds was examined against human cell lines HEK293FT (human embryonic kidney), WT and TDP1-deficient (TDP1-/-), HCT116 (human colon cancer), IMR-32 (human neuroblastoma cell line), HeLa (cervical cancer), and Krebs-2 carcinoma ascites using MTT and EZ4U colorimetric tests or an xCELLigence DP Real-Time Cell Analyzer (ACEA Biosciences, San Diego, CA, USA) for HEK293FT in cells exposed to the compounds. […]
PROPERTY_MEASURED: IC50

IN: Provide IC50, recorded with IMR-32 (human neuroblastoma cell line), of CC[C@@]1(O)C(=O)OCc2c1cc1n(c2=O)Cc2cc3c(CN(C)C)c(O)ccc3nc2-1 [Tpc, topotecan, reference compound]
OUT: ~8 nM

* * *

The following molecules have recorded pIC50 on TDP1 (Homo sapiens, UniProt Q9NUW8).
// pIC50: -log10(molar conc.)

1) CC1=C[C@@H]2[C@@H](c3sccc3C)OC(C)(C)[C@@H]2CC1 [11e]
5.44

IN: Check the records and state pIC50 for CC1=CC[C@@H]2C[C@H]1[C@H](c1cc(Br)cs1)OC2(C)C [12g]
OUT: 6.19

IN: Supply measured pIC50 of CC1=C[C@@H]2[C@@H](c3ccsc3)OC(C)(C)[C@@H]2CC1 [11k] in your reply.
OUT: 5.80

* * *

- System: HEK293FT TDP1−/− cells
- EXPERIMENT_SUMMARY: Colorimetric cytotoxicity test (MTT/EZ4U), HEK293FT TDP1-/-
- Format: cell-based, human
- CONDITION_NOTES: Homo sapiens, HEK293FT, 72 h, in DMSO, read-out: Tpc IC50, colorimetric test
PROPERTY_MEASURED: pIC50
By convention, pIC50 is the negative base-10 log of a molar concentration.

IN: State, in one line, measured pIC50 of CC[C@@]1(O)C(=O)OCc2c1cc1n(c2=O)Cc2cc3c(CN(C)C)c(O)ccc3nc2-1 [Tpc, topotecan, reference compound]
OUT: 7.52

* * *

- Tested on: HEK293FT WT cells
- EXPERIMENT_SUMMARY: Colorimetric cytotoxicity test (MTT/EZ4U), HEK293FT WT
- Type: cell-based, human
- CONDITION_NOTES: Homo sapiens, HEK293FT, 72 h, in DMSO, read-out: Tpc IC50, colorimetric test
PROPERTY_MEASURED: IC50 (nM)
Answer in nM, number only, no unit symbol.

IN: Annotate the compound CC[C@@]1(O)C(=O)OCc2c1cc1n(c2=O)Cc2cc3c(CN(C)C)c(O)ccc3nc2-1 [Tpc, topotecan, reference compound] with its measured IC50.
OUT: 200

* * *

- MEASURED_TARGET: TDP1 (Homo sapiens, UniProt Q9NUW8)
- Construct: made in house; host or cells: Escherichia coli
- EXPERIMENT_SUMMARY: Real-time detection of TDP1 activity with fluorescent oligonucleotide biosensor
- Assay type: biochemical
PROPERTY_MEASURED: activity against TDP1 (in words)

1. COc1cc(C2OC(C)(C)[C@@H]3CCC(C)=C[C@H]23)ccc1O (mixture of isomers) [11a]
do not exhibit activity
2. COc1cc(C2OC(C)(C)C3CC=C(C)C2C3)ccc1O (stereo not shown) [12a]
do not exhibit activity
3. C/C=C/C1OC(C)(C)[C@@H]2CCC(C)=C[C@H]12 (stereo partly shown) [11c]
do not exhibit activity

* * *

- MEASURED_TARGET: TDP1 (Homo sapiens)
pIC50 values, listed per item
On this scale, pIC50 is minus log10 of a concentration expressed in M (mol/L).

1. CC1=C[C@@H]2[C@@H](c3ccc(C)s3)OC(C)(C)[C@@H]2CC1 [11f]
5.33
2. CC1=CC[C@@H]2C[C@H]1[C@H](c1cccs1)OC2(C)C [12d]
5.47
3. CC1=CC[C@@H]2C[C@H]1[C@H](c1ccsc1)OC2(C)C [12k]
5.92
4. CC1=CC[C@@H]2C[C@H]1[C@H](c1sccc1C)OC2(C)C [12e]
5.65

Then this compound:
IN: Check the records and state pIC50 for CC1=C[C@@H]2[C@@H](c3ccc(Br)s3)OC(C)(C)[C@@H]2CC1 [11h]
OUT: 6.12
